Data origin: ChEMBL document CHEMBL3098083

Test system: Jurkat
assay-details: Antiproliferative activity against human Jurkat cells after 72 hrs by MTT assay
Assay type: functional, cell-based
property-name: IC50

Lookup: Look up and report measured IC50 for this entry: COc1cc(/C=C/C(=O)CC(=O)/C=C/c2ccc(O)c(OC)c2)ccc1O
Found: 4.29 µM

Lookup: Look up and report measured IC50 for this entry: COc1cc(/C=C/C(=O)/C=C(O)/C=C/c2ccc(O[C@@H]3O[C@H](C(=O)O)[C@@H](O)[C@H](O)[C@H]3O)c(OC)c2)ccc1O[C@@H]1O[C@H](C(=O)O)[C@@H](O)[C@H](O)[C@H]1O
Found: > 200 µM

Lookup: Look up and report measured IC50 for this entry: COc1cc(/C=C/C(O)=C/C(=O)/C=C/c2ccc(O[C@@H]3O[C@H](C(=O)O)[C@@H](O)[C@H](O)[C@H]3O)c(OC)c2)ccc1O
Found: > 200 µM
